# test.system: PI3-kinase p110-alpha/p85-alpha (Homo sapiens, UniProt P42336)
# Sequence (P27986 whole entry): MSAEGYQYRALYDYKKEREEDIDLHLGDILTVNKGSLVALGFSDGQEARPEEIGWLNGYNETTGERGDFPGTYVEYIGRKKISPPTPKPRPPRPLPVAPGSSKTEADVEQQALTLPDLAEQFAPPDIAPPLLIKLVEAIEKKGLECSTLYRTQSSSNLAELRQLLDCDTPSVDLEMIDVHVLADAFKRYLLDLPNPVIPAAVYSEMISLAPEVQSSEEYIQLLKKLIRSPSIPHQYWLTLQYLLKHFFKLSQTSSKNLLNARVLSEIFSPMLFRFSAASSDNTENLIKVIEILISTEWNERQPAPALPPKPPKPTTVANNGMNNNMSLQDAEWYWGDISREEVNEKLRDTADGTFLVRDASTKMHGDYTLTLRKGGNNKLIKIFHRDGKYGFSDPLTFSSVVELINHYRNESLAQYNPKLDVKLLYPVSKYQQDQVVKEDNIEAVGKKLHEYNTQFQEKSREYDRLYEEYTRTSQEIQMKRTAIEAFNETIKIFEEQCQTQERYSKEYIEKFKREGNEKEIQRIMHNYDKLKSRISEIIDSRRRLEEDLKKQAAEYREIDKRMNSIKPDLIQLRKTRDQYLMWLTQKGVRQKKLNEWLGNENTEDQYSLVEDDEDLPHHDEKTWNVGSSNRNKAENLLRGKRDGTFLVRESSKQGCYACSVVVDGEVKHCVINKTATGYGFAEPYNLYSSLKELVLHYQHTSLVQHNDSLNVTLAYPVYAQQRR
# Sequence (P42336 whole entry): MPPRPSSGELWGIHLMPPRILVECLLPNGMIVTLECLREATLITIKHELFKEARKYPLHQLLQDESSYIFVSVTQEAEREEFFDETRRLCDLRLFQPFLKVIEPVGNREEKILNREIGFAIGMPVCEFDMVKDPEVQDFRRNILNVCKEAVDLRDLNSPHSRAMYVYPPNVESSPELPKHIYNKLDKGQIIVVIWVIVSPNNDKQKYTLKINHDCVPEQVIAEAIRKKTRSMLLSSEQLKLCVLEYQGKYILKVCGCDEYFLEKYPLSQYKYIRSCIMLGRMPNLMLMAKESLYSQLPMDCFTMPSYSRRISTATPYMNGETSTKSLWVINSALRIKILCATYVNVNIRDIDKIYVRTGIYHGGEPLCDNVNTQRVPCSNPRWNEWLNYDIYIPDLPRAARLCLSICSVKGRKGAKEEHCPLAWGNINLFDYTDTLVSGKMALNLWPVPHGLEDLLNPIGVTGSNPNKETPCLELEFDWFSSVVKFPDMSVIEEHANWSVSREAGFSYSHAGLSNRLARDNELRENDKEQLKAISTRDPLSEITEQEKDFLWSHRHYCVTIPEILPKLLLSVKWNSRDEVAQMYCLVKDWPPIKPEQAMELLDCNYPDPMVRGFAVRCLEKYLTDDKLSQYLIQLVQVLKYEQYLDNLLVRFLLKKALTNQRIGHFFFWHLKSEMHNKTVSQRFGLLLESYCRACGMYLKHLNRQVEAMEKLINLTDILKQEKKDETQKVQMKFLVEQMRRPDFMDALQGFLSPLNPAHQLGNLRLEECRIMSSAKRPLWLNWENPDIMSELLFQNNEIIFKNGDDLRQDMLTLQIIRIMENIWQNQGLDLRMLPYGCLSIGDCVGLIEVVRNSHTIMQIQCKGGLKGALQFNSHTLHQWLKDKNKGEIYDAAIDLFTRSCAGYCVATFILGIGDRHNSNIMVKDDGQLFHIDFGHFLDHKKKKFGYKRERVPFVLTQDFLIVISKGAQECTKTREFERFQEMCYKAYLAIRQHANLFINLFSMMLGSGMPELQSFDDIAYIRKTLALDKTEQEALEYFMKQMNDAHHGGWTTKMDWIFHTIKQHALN
# experiment.description: Inhibition of PI3K p110alpha/p85alpha (unknown origin) using PIP2 as substrate after 1 hr by luminescent kinase-Glo assay
# note: exactly 8 nM is not below, so it is rule not met; use rule met for IC50 strictly under it

Incoming: A record lists `COc1ncc(-c2ccc3ncc(NCc4ccc(C(F)(F)F)cc4)c(OC)c3c2)cc1NS(=O)(=O)c1ccc(F)cc1F` . Is its IC50 below 8 nM?
Outgoing: rule not met

Incoming: Input `COc1ncc(-c2ccc3ncc(NC(C)=O)c(OC)c3c2)cc1NS(=O)(=O)c1ccc(F)cc1F` ; condition: IC50 strictly below 8 nM. Does it hold?
Outgoing: rule not met

Incoming: Is IC50 strictly under 8 nM for the entry `COc1ncc(-c2ccc3ncc(NCc4ccccc4)c(OC)c3c2)cc1NS(=O)(=O)c1ccc(F)cc1F` ?
Outgoing: rule not met

Incoming: Lab note: confirm whether the reported IC50 for this compound is below 8 nM, equality not counting. compound: `COc1ncc(-c2ccc3ncc(NC(=O)CN4CCC(O)CC4)c(OC)c3c2)cc1NS(=O)(=O)c1ccc(F)cc1F`
Outgoing: rule met

Incoming: In plain terms, does `COc1ncc(-c2ccc3ncc(NCC4CCN(C(C)=O)CC4)c(OC)c3c2)cc1NS(=O)(=O)c1ccc(F)cc1F` come in under 8 nM for IC50?
Outgoing: rule met

---
Incoming: In plain terms, does `COc1ncc(-c2ccc3ncc(NC(=O)CN4CCOCC4)c(OC)c3c2)cc1NS(=O)(=O)c1ccc(F)cc1F` come in under 8 nM for IC50?
Outgoing: rule met

Incoming: Given `COc1ncc(-c2ccc3ncc(NC(=O)CN(C)CCO)c(OC)c3c2)cc1NS(=O)(=O)c1ccc(F)cc1F` , is recorded IC50 strictly lower than 8 nM?
Outgoing: rule met

Incoming: Strictly below 8 nM: is that where IC50 of `COc1ncc(-c2ccc3ncc(NC(=O)C4CCCCC4)c(OC)c3c2)cc1NS(=O)(=O)c1ccc(F)cc1F` sits?
Outgoing: rule not met

----------
# test.system: Serine/threonine-protein kinase mTOR (Homo sapiens)
# experiment.description: Inhibition of recombinant human N-terminal FLAG-tagged mTOR (1362-end residues) using ULight-4E-BP1 peptide substrate after 1 hr in presence of ATP by Lance Ultra assay
measurement.label: pIC50
Hey, just a heads up that pIC50 is the negative log base 10 of the concentration in molar.

Per the records, this molecule ( `COc1ncc(-c2ccc3ncc(NC(=O)CN4CCOCC4)c(OC)c3c2)cc1NS(=O)(=O)c1ccc(F)cc1F` ) has pIC50 equal to 8.00

----------
# experiment.description: Mean residence time in mouse at 5 mg/kg, po by UPLC-MS/MS analysis
# Format: ADME, organism-based
# measurement.parameters: in vivo
measurement.label: MRT (h)
State the answer as a number, implicitly in h.

Value of measured MRT for the entry `COc1ncc(-c2ccc3ncc(NC(=O)CN4CCOCC4)c(OC)c3c2)cc1NS(=O)(=O)c1ccc(F)cc1F` : 2.7

----------
Reported pIC50 values for the following compounds.
# Test system: PC-3
# experiment.description: Antiproliferative activity against human PC3 cells after 72 hrs by SRB assay
# Assay type: functional, cell-based
# measurement.parameters: PC-3, 72 h
Lab note — pIC50 values are minus log10 of concentrations in M.

Form field pIC50, entry `COc1ncc(-c2ccc3ncc(NC(=O)CN4CCC(O)CC4)c(OC)c3c2)cc1NS(=O)(=O)c1ccc(F)cc1F` : 5.49

Note to self: pIC50 recorded for `COc1ncc(-c2ccc3ncc(NC(=O)CN4CCOCC4)c(OC)c3c2)cc1NS(=O)(=O)c1ccc(C(F)(F)F)cc1` was 5.43

Measured pIC50, `COc1ncc(-c2ccc3ncc(NC(=O)CN(C)CCO)c(OC)c3c2)cc1NS(=O)(=O)c1ccc(F)cc1F` : 5.70

Memo: `COc1ncc(-c2ccc3ncc(NCc4ccccc4)c(OC)c3c2)cc1NS(=O)(=O)c1ccc(F)cc1F` , reported pIC50: 5.36

***
Lab book: pIC50 of `COc1ncc(-c2ccc3ncc(NC(=O)C4CCCCC4)c(OC)c3c2)cc1NS(=O)(=O)c1ccc(F)cc1F` noted as 5.18

Sure, the documented pIC50 for `COc1ncc(-c2ccc3ncc(NCC4CCCCC4)c(OC)c3c2)cc1NS(=O)(=O)c1ccc(F)cc1F` is 5.05

# pIC50 of COc1ncc(-c2ccc3ncc(NC(=O)CN4CCCC(O)C4)c(OC)c3c2)cc1NS(=O)(=O)c1ccc(F)cc1F (configuration not stated) = 5.87

Just so you know, measured pIC50 for `COc1ncc(-c2ccc3ncc(NCc4ccc(C(F)(F)F)cc4)c(OC)c3c2)cc1NS(=O)(=O)c1ccc(F)cc1F` came out at 5.54

Consider `COc1ncc(-c2ccc3ncc(NC(=O)CN4CCOCC4)c(OC)c3c2)cc1NS(=O)(=O)c1ccc(F)cc1F` . Its measured pIC50 is 7.10
